biological target: AMPK beta 2 (Mus musculus, UniProt Q6PAM0+Q8BRK8); construct: fully differentiated myotubes (C2C12 cells) grown in 96 well plate; endogenous in cells; host or cells: C2C12 myotubes (assignment to the beta 2 column inferred); test: in-cell-ELISA for phospho-ACC: activation of AMPK, beta 2 (HepG2 cells / C2C12 myotubes); format: cell-based; details: 1 μM, 2 h, percentage activation over vehicle control
Sequence (Q6PAM0 whole entry): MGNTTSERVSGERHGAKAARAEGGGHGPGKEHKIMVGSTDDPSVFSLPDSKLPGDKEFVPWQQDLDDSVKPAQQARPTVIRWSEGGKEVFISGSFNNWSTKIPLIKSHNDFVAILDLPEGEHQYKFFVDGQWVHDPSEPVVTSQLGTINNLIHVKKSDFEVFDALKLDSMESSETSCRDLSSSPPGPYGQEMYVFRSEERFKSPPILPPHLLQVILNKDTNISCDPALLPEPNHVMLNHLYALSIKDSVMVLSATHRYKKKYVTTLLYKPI
Sequence (Q8BRK8 whole entry): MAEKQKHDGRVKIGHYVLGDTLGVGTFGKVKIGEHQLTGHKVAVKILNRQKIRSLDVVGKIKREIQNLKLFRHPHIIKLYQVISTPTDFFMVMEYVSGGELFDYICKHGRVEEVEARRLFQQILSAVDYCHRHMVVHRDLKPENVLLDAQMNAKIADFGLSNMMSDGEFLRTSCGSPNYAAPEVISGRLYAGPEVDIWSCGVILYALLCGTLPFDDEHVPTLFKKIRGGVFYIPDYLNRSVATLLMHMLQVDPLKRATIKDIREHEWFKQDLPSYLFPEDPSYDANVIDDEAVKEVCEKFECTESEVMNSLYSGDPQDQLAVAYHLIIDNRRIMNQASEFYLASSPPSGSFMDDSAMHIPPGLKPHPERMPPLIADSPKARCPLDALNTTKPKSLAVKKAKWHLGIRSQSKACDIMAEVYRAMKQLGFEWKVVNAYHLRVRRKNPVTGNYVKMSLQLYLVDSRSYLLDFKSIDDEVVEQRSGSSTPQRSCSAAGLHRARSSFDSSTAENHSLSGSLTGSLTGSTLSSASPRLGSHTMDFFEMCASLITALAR
Sequence (O54950 whole entry partner): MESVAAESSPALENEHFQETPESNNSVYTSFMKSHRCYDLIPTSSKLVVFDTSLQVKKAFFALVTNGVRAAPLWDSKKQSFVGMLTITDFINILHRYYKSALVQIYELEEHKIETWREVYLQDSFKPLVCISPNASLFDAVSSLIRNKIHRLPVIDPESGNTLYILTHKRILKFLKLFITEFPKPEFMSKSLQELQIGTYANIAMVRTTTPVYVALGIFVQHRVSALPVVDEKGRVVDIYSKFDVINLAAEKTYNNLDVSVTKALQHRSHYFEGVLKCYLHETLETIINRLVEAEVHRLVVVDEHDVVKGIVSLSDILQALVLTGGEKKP
Property: Percentage activation of beta 2 at given concentration (% at 1 μM)

Illustrative cases are given below, each with its answer.
                                   molecule  numeric_readout
0  Cc1ccc(C2CC23C(=O)Nc2cc(F)c(-c4ccc(-c5ccc(-n6cncn6)cc5)cc4)cc23)cc1C(=O)O (stereo not shown) [Example 145]              138
1  Cc1ccc(C2CC23C(=O)Nc2cc(Cl)c(-c4ccc(-c5ccc(-n6ccnn6)cc5)cc4)cc23)cc1C(=O)O (stereo not shown) [Example 134]               47

A. Cc1ccc(C2CC23C(=O)Nc2cc(F)c(-c4ccc(-c5ccc(-n6cncn6)cc5)cc4)cc23)cc1C(=O)O (stereo not shown) [Example 146]
B. Cc1ccc(C2CC23C(=O)Nc2cc(Cl)c(-c4ccc(-c5ccc(-n6ccnn6)cc5)cc4)cc23)cc1C(=O)O (stereo not shown) [Example 135]
Q: Of A versus B , which is the one with smaller reported Percentage activation of beta 2 at given concentration? // return label of chosen record
Ans: A

* * *

target: AMPK beta 1 (Homo sapiens, UniProt Q13131+Q9Y478); construct: in-cell-ELISA for phospho-ACC (Acetyl-CoA carboxylase 1) in HepG2 cells (liver); endogenous in cells; host or cells: HepG2 (assignment to the beta 1 column inferred); experiment: in-cell-ELISA for phospho-ACC: activation of AMPK, beta 1 (HepG2 cells / C2C12 myotubes); format: cell-based; settings: 2 h, 1 μM, percentage activation over vehicle control, read-out: Percentage activation of beta 1 at given concentration
Sequence (Q9Y478 2-270 limits assumed): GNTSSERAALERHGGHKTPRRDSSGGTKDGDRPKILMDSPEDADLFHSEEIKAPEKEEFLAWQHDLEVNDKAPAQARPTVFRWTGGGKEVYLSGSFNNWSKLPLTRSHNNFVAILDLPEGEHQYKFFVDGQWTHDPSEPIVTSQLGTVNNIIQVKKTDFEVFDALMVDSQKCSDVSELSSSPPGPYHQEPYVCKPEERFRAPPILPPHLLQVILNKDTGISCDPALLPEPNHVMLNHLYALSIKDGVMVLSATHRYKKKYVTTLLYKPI
Sequence (Q13131 whole entry): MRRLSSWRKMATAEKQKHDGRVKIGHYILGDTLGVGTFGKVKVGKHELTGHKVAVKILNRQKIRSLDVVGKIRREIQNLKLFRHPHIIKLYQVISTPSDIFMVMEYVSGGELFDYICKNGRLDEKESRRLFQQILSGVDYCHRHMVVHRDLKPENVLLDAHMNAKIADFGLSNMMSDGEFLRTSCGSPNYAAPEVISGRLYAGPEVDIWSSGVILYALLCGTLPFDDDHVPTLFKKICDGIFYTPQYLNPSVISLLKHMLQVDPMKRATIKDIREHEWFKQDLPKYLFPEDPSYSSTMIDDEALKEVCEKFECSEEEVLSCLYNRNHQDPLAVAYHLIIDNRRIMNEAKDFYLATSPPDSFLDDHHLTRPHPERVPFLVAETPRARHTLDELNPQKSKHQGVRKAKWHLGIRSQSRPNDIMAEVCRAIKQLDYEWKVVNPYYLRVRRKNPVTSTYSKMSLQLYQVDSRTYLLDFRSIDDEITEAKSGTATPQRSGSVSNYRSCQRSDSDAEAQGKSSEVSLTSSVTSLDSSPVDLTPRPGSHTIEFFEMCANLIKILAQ
Sequence (P54619 whole entry partner): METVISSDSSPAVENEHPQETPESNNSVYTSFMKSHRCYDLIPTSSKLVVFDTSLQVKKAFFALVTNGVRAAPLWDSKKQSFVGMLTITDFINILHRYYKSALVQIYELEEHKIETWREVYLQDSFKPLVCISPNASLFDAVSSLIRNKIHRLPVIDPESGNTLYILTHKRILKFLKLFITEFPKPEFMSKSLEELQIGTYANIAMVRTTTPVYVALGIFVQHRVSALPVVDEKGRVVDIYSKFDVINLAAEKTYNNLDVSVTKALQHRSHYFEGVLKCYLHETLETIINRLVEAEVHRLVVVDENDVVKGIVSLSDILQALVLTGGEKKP
Property: activation at 1 µM (%)

In [3]: df
Out[3]:
                                   compound            property  numeric_readout
0  Cc1ccc(C2CC23C(=O)Nc2cc(Cl)c(-c4ccc(-c5ccccc5O)cc4)cc23)cc1CO (stereo not drawn)  activation at 1 µM               88

P. Cc1ccc(C2CC23C(=O)Nc2cc(F)c(-c4ccc(-c5ccccc5O)cc4)cc23)cc1CO (stereo not drawn)
Q. COc1ccc(C2CC23C(=O)Nc2cc(F)c(-c4ccc(-c5ccc(-n6cccn6)cc5)cc4)cc23)cc1C(=O)O (stereo not drawn)
Q: Please state the entry with greater activation at 1 µM among P and Q . Answer by quoting the chosen item's label.
Ans: P

* * *

molecular target: AMPK beta 2 (Mus musculus, UniProt Q6PAM0+Q8BRK8); construct: fully differentiated myotubes (C2C12 cells) grown in 96 well plate; endogenous in cells; host or cells: C2C12 myotubes (assignment to the beta 2 column inferred); assay: in-cell-ELISA for phospho-ACC: activation of AMPK, beta 2 (HepG2 cells / C2C12 myotubes); assay type: cell-based; details: 2 h, 3 μM, percentage activation over vehicle control, read-out: Percentage activation of beta 2 at given concentration
Property: activation at 3 µM (%)

Answered examples (4):
>>> df
                                   compound                            assayed_target  numeric_readout
0  COc1ccc(C2CC23C(=O)N(C)c2cc(Cl)c(-c4ccc(-c5ccccc5O)cc4)cc23)cc1CC(=O)O (stereo not shown)  AMPK beta 2 (Mus musculus, UniProt Q6PAM0+Q8BRK8)               23
1  COc1ccc(C2CC23C(=O)Nc2cc(Cl)c(-c4ccc(-c5ccccc5O)cc4)cc23)cc1CC(=O)O (stereo not shown)  AMPK beta 2 (Mus musculus, UniProt Q6PAM0+Q8BRK8)              101
2  O=C(O)Cc1ccc(C2CC23C(=O)Nc2cc(Cl)c(-c4ccc(-c5ccccc5O)cc4)cc23)cc1 (stereo not shown)  AMPK beta 2 (Mus musculus, UniProt Q6PAM0+Q8BRK8)               83
3  Cc1ccc(C2CC23C(=O)N(C)c2cc(Cl)c(-c4ccc(-c5ccncc5)cc4)cc23)cc1C(=O)O (stereo not shown)  AMPK beta 2 (Mus musculus, UniProt Q6PAM0+Q8BRK8)               46

I. Cc1ccc(C2CC23C(=O)N(CC2CC2)c2cc(Cl)c(-c4ccc(-c5ccncc5)cc4)cc23)cc1C(=O)O (stereo not shown)
II. CC(C)c1ccc(C2CC23C(=O)N(C)c2cc(Cl)c(-c4ccc(-c5ccncc5O)cc4)cc23)cc1C(=O)O (stereo not shown)
III. COc1ccc(C2CC23C(=O)Nc2cc(Cl)c(-c4ccc(-c5ccc(-n6cncn6)cc5)cc4)cc23)cc1C(=O)O (stereo not shown)
Q: Order by activation at 3 µM, ascending. Submit the labels in the order that the ranking request calls for.
Ans: II, I, III
(II: 32%, I: 65%, III: 198%)
